- Test system: Saccharomyces cerevisiae
- Experiment: protein stability index of tFT-peptide fusion (C-terminal peptide) (PSI (0-1 scale)); higher = more stable (slower turnover)
- Run Conditions: genetic background: das1 deletion; temperature: 30 C
Readout Type: protein stability index
Numbers only.

Answered examples (3):
Record Sequence	protein stability index
YTSKSFSPASSE [YMR181C C-terminal 12 aa]	0.704
WYSRKNINSRFE [MTR10 C-terminal 12 aa]	0.714
LDISASLEKIAT [FMP52 C-terminal 12 aa]	0.677

Dear reader, for each entry below, please note its protein stability index.
1. ENIEVILSNGRM [SNF12 C-terminal 12 aa]
2. KWQARQRGLQRF [PMP1 C-terminal 12 aa]
3. KQQSWLRRVIGY [ENB1 C-terminal 12 aa]
4. LLYCNIYVYYRF [KAR1 C-terminal 12 aa]
5. QDKQVKSWWRFW [CBP4 C-terminal 12 aa]
6. APTPEACESCSG [RNR3 C-terminal 12 aa]
7. RKRLRTLDNWYR [RNH201 C-terminal 12 aa]

## Output
[0.676, 0.695, 0.696, 0.15, 0.762, 0.696, 0.735]

Dear reader, for each entry below, please note its protein stability index.
1. RCSETKQQVMNS [BTT1 C-terminal 12 aa]
2. GAPANKRPRRGL [SMD1 C-terminal 12 aa]
3. RLQAMLNSSSSI [CEF1 C-terminal 12 aa]
4. ECPSVPPTVRAY [SDH1 C-terminal 12 aa]
5. QQSPHPVVDNDK [KIP2 C-terminal 12 aa]

## Output
[0.669, 0.737, 0.681, 0.528, 0.692]

Dear reader, for each entry below, please note its protein stability index.
1. MDTLEEMFTEEP [PRP42 C-terminal 12 aa]
2. PLGEKFLNISNS [TEN1 C-terminal 12 aa]
3. QEANDDLMIDVN [ENP1 C-terminal 12 aa]
4. THLQQVAVSGQA [SEC23 C-terminal 12 aa]
5. AGSSKFLKGAKI [MRS1 C-terminal 12 aa]
6. ARMTGETPVAKH [YHM2 C-terminal 12 aa]
7. GNNKKKRSVKRE [PBN1 C-terminal 12 aa]
8. SSEEGYYIAGSI [IRC23 C-terminal 12 aa]

## Output
1: 0.726; 2: 0.705; 3: 0.678; 4: 0.572; 5: 0.707; 6: 0.688; 7: 0.688; 8: 0.82

Dear reader, for each entry below, please note its protein stability index.
1. KKGLTRSVKFKN [SAS10 C-terminal 12 aa]
2. CIEIARHFVLKE [YEL009C-A C-terminal 12 aa]

## Output
[0.708, 0.73]

---

Give measured protein stability index for each item. Keep answers brief.
- Tested on: Saccharomyces cerevisiae
- Experiment: protein stability index of tFT-peptide fusion (C-terminal peptide) (PSI (0-1 scale)); higher = more stable (slower turnover)
- Run Conditions: genetic background: wild type; temperature: 30 C
One number for each entry.

Answered examples (3):
LNLRTFATFFRY 0.635
RLDVVGVPERTL 0.762
RLCPNSITLPSL 0.716

Dear reader, for each entry below, please note its protein stability index.
1. DLRFAWLLSCFS
2. VPLCSGKLAQIS

## Output
0.432
0.757

---

Give measured protein stability index for each item. Keep answers brief.
- Test system: Saccharomyces cerevisiae
- Experiment: protein stability index of tFT-peptide fusion (C-terminal peptide) (PSI (0-1 scale)); higher = more stable (slower turnover)
- Run Conditions: genetic background: wild type; temperature: 30 C
Give bare numbers.

VPPHSLPPPTHP 0.753
SLSVMSAPLVGI 0.636
VFSGGGFFLKVV 0.377
LSPSSSLTYLSF 0.724
RQALYFLMICGL 0.421
GGCKSLYFEWGR 0.734
RDRFSWGRRSDN 0.696
FVGAYGRLCCMS 0.69

Dear reader, for each entry below, please note its protein stability index.
1. TMHFVWVLGILE
2. LVIKNVWHESTY
3. MGCSARLPLLSS
4. PPSLPLLPPHPP
5. VTHREFAGSALG
6. ALSRFFSVFLLV
7. GGGGETGRERKD

## Output
1: 0.524; 2: 0.709; 3: 0.721; 4: 0.562; 5: 0.698; 6: 0.381; 7: 0.655

---

- Tested on: Saccharomyces cerevisiae
- Experiment: protein stability index of tFT-peptide fusion (C-terminal peptide) (PSI (0-1 scale)); higher = more stable (slower turnover)
- Run Conditions: genetic background: das1 deletion; temperature: 30 C
I would appreciate it if you labelled entries true when protein stability index is 0.7 or higher, otherwise false.

Recorded results for 2 sequences are shown here.
Record Sequence	Assayed Target	Assigned Category
EKHSFSTTQQVV [NRT1 C-terminal 12 aa]	Saccharomyces cerevisiae	false
FKMCPFFISWFL [YBL073W C-terminal 12 aa]	Saccharomyces cerevisiae	false

## Input Does protein stability index meet or surpass 0.7 for GALVGYTIGAYI [GPI11 C-terminal 12 aa] ?
## Output false

## Input Does protein stability index meet or surpass 0.7 for TLIAAGIIRTGR [STI1 C-terminal 12 aa] ?
## Output true

---

- System: Saccharomyces cerevisiae
- Experiment: protein stability index of tFT-peptide fusion (C-terminal peptide) (PSI (0-1 scale)); higher = more stable (slower turnover)
- Run Conditions: genetic background: wild type; temperature: 30 C
I would appreciate it if you labelled entries Condition met when protein stability index is 0.7 or higher, otherwise Condition not met.

Recorded results for 4 sequences are shown here.
HGISLVWEVGEG Condition not met
VGEVLCVGGAFY Condition not met
QNKKEKRHKTKT Condition not met
VVIFPPTFISGG Condition not met

## Input Does protein stability index meet or surpass 0.7 for LPPLPPPPLLFP ?
## Output Condition not met

## Input Does protein stability index meet or surpass 0.7 for PPPPLPAPLSPA ?
## Output Condition not met

## Input Does protein stability index meet or surpass 0.7 for LRPLPSPPPSLH ?
## Output Condition not met

## Input Does protein stability index meet or surpass 0.7 for FHFFSFLSSVGF ?
## Output Condition not met

## Input Does protein stability index meet or surpass 0.7 for VSGVREGCSEME ?
## Output Condition met

## Input Does protein stability index meet or surpass 0.7 for SKKKITGGEAGH ?
## Output Condition not met

## Input Does protein stability index meet or surpass 0.7 for VKKHRQTNGMVY ?
## Output Condition met

## Input Does protein stability index meet or surpass 0.7 for RRGAPSYATLAL ?
## Output Condition not met

---

- Test system: Saccharomyces cerevisiae
- Experiment: protein stability index of tFT-peptide fusion (C-terminal peptide) (PSI (0-1 scale)); higher = more stable (slower turnover)
- Run Conditions: genetic background: das1 deletion; temperature: 30 C
Give measured protein stability index for each item. Keep answers brief.
One number for each entry.

Record Sequence	Assayed Target	protein stability index
DDDEFDEDEFED [PAH1 C-terminal 12 aa]	Saccharomyces cerevisiae	0.695
KDAFLKELGLQN [PRD1 C-terminal 12 aa]	Saccharomyces cerevisiae	0.69
IIQSYINLLEEN [NKP2 C-terminal 12 aa]	Saccharomyces cerevisiae	0.708
YIKEAQSACNDV [COS12 C-terminal 12 aa]	Saccharomyces cerevisiae	0.692
QTDGMGLVSWWE [RPC25 C-terminal 12 aa]	Saccharomyces cerevisiae	0.751

Continue with the sequence presented below.
## Input I am curious: what protein stability index value has been reported for NDGTSANSACSC [VPS21 C-terminal 12 aa] ?
## Output 0.715

---

Give measured protein stability index for each item. Keep answers brief.
- System: Saccharomyces cerevisiae
- Experiment: protein stability index of tFT-peptide fusion (C-terminal peptide) (PSI (0-1 scale)); higher = more stable (slower turnover)
- Run Conditions: genetic background: wild type; temperature: 30 C

Answered examples (8):
LCVGAGCAFEEG 0.675
FLSFFVLGVPGG 0.707
SPPLSRSPPPTL 0.674
YSVDGTGVGLWV 0.717
LVFVPTLFPPPG 0.662
RVCYRAELSAMS 0.559
SPARLPPLPSLS 0.734
IHCLSIVVHGLS 0.499

Dear reader, for each entry below, please note its protein stability index.
1. VVCLLGIFYGFC
2. RHISRIYVERRY
3. SHPLLPPHLPPP
4. ARGALPHHVSCV
5. PPLPSFILSPRA

## Output
0.446
0.695
0.682
0.691
0.705

---

Give measured protein stability index for each item. Keep answers brief.
- System: Saccharomyces cerevisiae
- Experiment: protein stability index of tFT-peptide fusion (C-terminal peptide) (PSI (0-1 scale)); higher = more stable (slower turnover)
- Run Conditions: genetic background: wild type; temperature: 30 C
Numbers only.

FWFLWAKMLLSC 0.175

Dear reader, for each entry below, please note its protein stability index.
1. TDFICLLWLLHW
2. RSSGAFKVCTDR
3. CECAEGRGKDRS
4. ESRWRSPCFIIW
5. LRCCGALPLYAY

## Output
0.565
0.684
0.591
0.626
0.348

Dear reader, for each entry below, please note its protein stability index.
1. WDSGRWSCLRGW
2. ITHLFRSSIYSR
3. FGASSGSARVCG
4. LRVVCVVGQRSL
5. KKKKKKKKKKRK
6. PMSPCPTRSINA

## Output
0.698
0.683
0.682
0.554
0.685
0.702

Dear reader, for each entry below, please note its protein stability index.
1. LLGSFSLSMSSL
2. SLVWVVSDLGCG
3. FAGGAVNIGVVG
4. PPPPPLSPPPRP
5. FYMCYFSCSRSL
6. RAADGWGVLCGV
7. EVWSYCPAFFVD

## Output
[0.717, 0.778, 0.71, 0.686, 0.667, 0.679, 0.736]
